Let's look at some compounds and their measured change in vivo at 2 mg/kg.
- Tested on: normal rats
- TEST NAME: Effect on blood pressure of normal rats by single oral administration
- Format: in vivo, Wistar rats
- RECORDED CONDITIONS: Rattus norvegicus, po; 2.0 mg/kg p.o., single, normal rats; read-out: variations on heart rate
EXPERIMENTAL ENDPOINT: change in vivo at 2 mg/kg (%)

compound="CCOC(=O)C(=O)OC(C)C(=O)COC(=O)c1cccc2nc(OCC)n(Cc3ccc(-c4ccccc4-c4noc(=O)[nH]4)cc3)c12 (stereo not shown) [QR01015]" experimental_endpoint="change in vivo at 2 mg/kg" unit_name=% reported_result=-3
compound="CCOc1nc2cccc(C(=O)OCOC(=O)C(C)(C)C)c2n1Cc1ccc(-c2ccccc2-c2noc(=O)[nH]2)cc1 [QR01005]" experimental_endpoint="change in vivo at 2 mg/kg" unit_name=% reported_result=8
compound="CCOc1nc2cccc(C(=O)OCc3nc(C)c(C)nc3C)c2n1Cc1ccc(-c2ccccc2-c2noc(=O)[nH]2)cc1 [QR01006]" experimental_endpoint="change in vivo at 2 mg/kg" unit_name=% reported_result=-5
compound="CCOc1nc2cccc(C(=O)OCc3no[n+]([O-])c3C(C)(C)C)c2n1Cc1ccc(-c2ccccc2-c2noc(=O)[nH]2)cc1 [QR01026]" experimental_endpoint="change in vivo at 2 mg/kg" unit_name=% reported_result=-4

These data points were gathered from patent US9708306B2.
